Sourced from the supplement of paper PMC6757056

B1: library; a variant is named by its letters at N, in order (parent)
chain: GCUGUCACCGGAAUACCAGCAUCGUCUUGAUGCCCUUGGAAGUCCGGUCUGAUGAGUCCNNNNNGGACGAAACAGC

- Variants of: B1
- test-protocol: normalized RNA/DNA level without ligand (relative to sTRSVctl = 100) (log10 (% of sTRSVctl)); higher = less ribozyme self-cleavage, higher mRNA level
- conditions: HEK293T, reporter: mCherry (pCS4076), ligand present: no
measured-metric: normalized RNA/DNA level without ligand (log10)
I'd appreciate a reply containing only the number, no unit.

These solved cases illustrate the format of a correct answer.
change	obs-value
UCUUG	1.94
UUAAC	1.93
AAACG	1.84
UUAUC	1.96
AAAAA	1.11
CUCUA	1.78
GCAGU	1.77
AUAAU	1.79

Q) Please indicate normalized RNA/DNA level without ligand (log10) recorded for "AGCCG"
A) 1.93

Q) Specify reported normalized RNA/DNA level without ligand (log10) for the variant shown: "CCCCC"
A) 1.97

Q) Hello, please tell me recorded normalized RNA/DNA level without ligand (log10) for this one: "UUCGU"
A) 2.02

Q) Using known records, supply normalized RNA/DNA level without ligand (log10) for "AGCUA"
A) 1.76

Q) State its normalized RNA/DNA level without ligand (log10): "UAAAA"
A) 1.21

Q) Give the measured normalized RNA/DNA level without ligand (log10) for "AUGCC"
A) 1.96

Q) Determine from records and report normalized RNA/DNA level without ligand (log10) for "ACGGA"
A) 1.66

Q) Give normalized RNA/DNA level without ligand (log10) for the following variant: "UCCAU"
A) 1.96

Q) Complete the entry with normalized RNA/DNA level without ligand (log10) for "ACUUU"
A) 1.89

Q) Determine from records and report normalized RNA/DNA level without ligand (log10) for "AUCUA"
A) 1.89
